- test details: P. aeruginosa biofilm formation inhibitors, primary screen, strain PAO1, LB-PBS medium, absorbance 600 nm (AID 1176); also: test concentration not given here
- condition summary: P. aeruginosa PAO1 growth/biofilm, A600, 12 h; higher = more signal
endpoint: z-score
The answer should be written as a number, with no unit following it.

{"columns": ["compound", "endpoint", "endpoint result"],
 "data": [
  ["CCOC(=O)C1=NO[C@]2(C=C(Br)C3(OCCCO3)[C@H]3O[C@H]32)C1", "z-score", -0.646],
  ["C=CC[C@@H]1C=C[C@H](ON=C[C@@H](C)[C@H](OCc2ccccc2)C(C)C)[C@@H](CO)O1", "z-score", 0.241],
  ["CCOC(=O)[C@H](Cc1ccccc1)NC(=O)CCC1CC(OC(=O)NCc2cccc3ccccc23)CC2(CCCC(COC(=O)NCc3ccccc3)O2)O1 (stereo not given in full)", "z-score", 0.709],
  ["C[C@H](ON=C1[C@H]2CCn3c(=O)n(-c4ccccc4)c(=O)n3[C@H]2[C@H](O)[C@@H]2O[C@H]12)c1cn([C@H](CO)Cc2ccccc2)nn1", "z-score", 0.0282]
]}

(Q) Report z-score for CCOC(=O)[C@H](Cc1ccccc1)NC(=O)CCC1CC(OC(=O)NCc2cccc3ccccc23)CC2(CCCC(COC(=O)NCc3cccc(C(F)(F)F)c3)O2)O1 (stereo not given in full)
(A) 0.675

(Q) Report z-score for CO[C@H]1COC(=O)[C@@H](C)COC(=O)[C@H](C)NC(=O)CC=C[C@H]1C
(A) -1.13

(Q) Report z-score for COC(=O)CC=C[C@@H](C)[C@@H](C=NO[C@H](C)c1cn([C@H](CO)Cc2ccccc2)nn1)NS(=O)(=O)c1ccc(C)cc1
(A) 0.0282

(Q) Report z-score for O=c1n(Cc2cc3c(cc2Cl)OCO3)c(=O)n2n1CC[C@@H]1C(=NOC[C@@H](O)COCc3ccco3)[C@H]3O[C@H]3[C@@H](O)[C@@H]12
(A) 0.471

(Q) Report z-score for CON=C1[C@H]2CCn3c(=O)n(-c4ccccc4)c(=O)n3[C@H]2[C@H](O)[C@@H]2O[C@H]12
(A) 0.335

(Q) Report z-score for CCc1cc2c(nc1CC)CCN(CCC(C)=NOC[C@H]1O[C@H](c3ccccc3)C=C[C@@H]1Oc1ccc(OC)cc1)C2
(A) -0.197

(Q) Report z-score for CON=C[C@@H](C)[C@H](OCc1ccccc1)C(C)C
(A) 0.298

(Q) Report z-score for COC(=O)C1=C(C)N(Cc2ccccc2)[C@]23O[C@](C(=O)OC)(C(=O)N2[C@@H]1c1ccccc1)C(C(=O)OC)=C3C(=O)OC
(A) -0.965

(Q) Report z-score for CCN1C(=O)[C@H]2[C@H]3[C@H](O)[C@H](O)CC(=NNC(=O)OCc4ccc(OC)cc4)[C@@H]3CC[C@H]2C1=O
(A) -0.708

(Q) Report z-score for COC(=O)CC=C[C@@H](C)[C@@H](C=NO[C@@H](C)c1cn([C@H](CO)Cc2ccccc2)nn1)OC
(A) -0.418

(Q) Report z-score for COC(=O)[C@H](C)NC(=O)CCC1CC(OC(=O)NCc2ccc3c(c2)OCO3)CC2(CCCC(COC(=O)NCC(c3ccccc3)c3ccccc3)O2)O1 (stereo not given in full)
(A) -0.895
